Attribution: PubChem BioAssay AID1963984

Test system: 233499-124-R-J3-PDC spheroids with HUVEC/MSC, viability
Assay: Anticancer human tumor 233499-124-R-J3-PDC patient-derived colon adenocarcinoma cell line growth inhibition [PI3K]
Details: second compound 3.16 µM; first compound 0.1 µM; active compounds read low
Listing of entries alongside the reported viability, T/C.
Give your result in % as a bare value.

CC1(C)CCC(Nc2ncc(C(F)(F)F)c(-c3c[nH]c4c(P(C)(C)=O)c(C#N)ccc34)n2)CN1 (stereo not drawn) + Cc1nc(NC(=O)N2CCCC2C(N)=O)sc1-c1ccnc(C(C)(C)C(F)(F)F)c1	34.9
Cn1nccc1Nc1nccc(-c2ccn(C(CO)c3ccc(Cl)c(F)c3)c(=O)c2)n1 (stereo not drawn) + Cc1nc(NC(=O)N2CCCC2C(N)=O)sc1-c1ccnc(C(C)(C)C(F)(F)F)c1	58.7

Qu. Looking for the measured viability, T/C of C#Cc1c(F)ccc2cc(O)cc(-c3ncc4c(N5CC6CCC(C5)N6)nc(OCC56CCCN5CC(F)C6)nc4c3F)c12 (stereo not drawn) + Cc1nc(NC(=O)N2CCCC2C(N)=O)sc1-c1ccnc(C(C)(C)C(F)(F)F)c1 , can you help?
Ans. 72

* * *

Tested on: 233499-124-R-J3-PDC spheroids with HUVEC/MSC, viability
Assay: Anticancer human tumor 233499-124-R-J3-PDC cell line growth inhibition [PI3K]; active means viability on the fitted dose curve at most 10% of control; inactive means the rest;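 further: spheroids exposed to agents for seven days before readout; percent viability relative to DMSO vehicle control taken as 100%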
Settings: second compound 1 µM; first compound 0.00316 µM
Please reply with one of these outcomes: True = active, False = inactive

Qu. Could you kindly confirm the outcome this assay logged for CC(=O)c1c(C)c2cnc(Nc3ccc(N4CCNCC4)cn3)nc2n(C2CCCC2)c1=O + Cc1nc(NC(=O)N2CCCC2C(N)=O)sc1-c1ccnc(C(C)(C)C(F)(F)F)c1 ?
Ans. False

Qu. Thanks! And CC(C)n1nc(-c2ccc3oc(N)nc3c2)c2c(N)ncnc21 + COc1c(OCCCN2CCOCC2)ccc2c3n(c(=NC(=O)c4cnc(N)nc4)nc12)CCN3 ?
Ans. True

Qu. Next record, please: Cn1ncnc1[C@H]1c2n[nH]c(=O)c3cc(F)cc(c23)N[C@@H]1c1ccc(F)cc1 + CC(Nc1ccc2c(c1)OCCn1cc(N3C(=O)OCC3C(F)F)nc1-2)C(N)=O
Ans. False

Qu. Another compound: CCN1CCN(Cc2ccc(Nc3ncc(F)c(-c4cc(F)c5nc(C)n(C(C)C)c5c4)n3)nc2)CC1 + CC(Nc1ncnc2nc[nH]c12)c1cc2cccc(Cl)c2c(=O)n1-c1ccccc1
Ans. False

Qu. Similarly, Cn1ncnc1[C@H]1c2n[nH]c(=O)c3cc(F)cc(c23)N[C@@H]1c1ccc(F)cc1 + CC(Nc1ncnc2nc[nH]c12)c1cc2cccc(Cl)c2c(=O)n1-c1ccccc1 ?
Ans. False

* * *

Test system: 233499-124-R-J3-PDC spheroids with HUVEC/MSC, viability
Assay: Anticancer human tumor 233499-124-R-J3-PDC cell line growth inhibition [PI3K];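 further: spheroids exposed to agents for seven days before readout; percent viability relative to DMSO vehicle control taken as 100%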
Conditions: second compound 0.0316 µM; first compound 0.01 µM; active compounds read low
Below: a set of entries, each annotated with reported viability, T/C.
Give your result in % as a bare value.

CC(=O)c1c(C)c2cnc(Nc3ccc(N4CCNCC4)cn3)nc2n(C2CCCC2)c1=O + COc1c(OCCCN2CCOCC2)ccc2c3n(c(=NC(=O)c4cnc(N)nc4)nc12)CCN3	86.8
CC(C)n1nc(-c2ccc3oc(N)nc3c2)c2c(N)ncnc21 + CC(Nc1ncnc2nc[nH]c12)c1cc2cccc(Cl)c2c(=O)n1-c1ccccc1	79.4
CC(C)n1nc(-c2ccc3oc(N)nc3c2)c2c(N)ncnc21 + COc1c(OCCCN2CCOCC2)ccc2c3n(c(=NC(=O)c4cnc(N)nc4)nc12)CCN3	80.6

Qu. Which measured viability, T/C value corresponds to Cn1ncnc1[C@H]1c2n[nH]c(=O)c3cc(F)cc(c23)N[C@@H]1c1ccc(F)cc1 + COc1c(OCCCN2CCOCC2)ccc2c3n(c(=NC(=O)c4cnc(N)nc4)nc12)CCN3 ?
Ans. 83.9

Qu. Next molecule up: CC(=O)c1c(C)c2cnc(Nc3ccc(N4CCNCC4)cn3)nc2n(C2CCCC2)c1=O + CC(Nc1ccc2c(c1)OCCn1cc(N3C(=O)OCC3C(F)F)nc1-2)C(N)=O
Ans. 89

Qu. Then this molecule: CCN1CCN(Cc2ccc(Nc3ncc(F)c(-c4cc(F)c5nc(C)n(C(C)C)c5c4)n3)nc2)CC1 + COc1c(OCCCN2CCOCC2)ccc2c3n(c(=NC(=O)c4cnc(N)nc4)nc12)CCN3
Ans. 85.6

Qu. Again, but for CCN1CCN(Cc2ccc(Nc3ncc(F)c(-c4cc(F)c5nc(C)n(C(C)C)c5c4)n3)nc2)CC1 + CC(Nc1ccc2c(c1)OCCn1cc(N3C(=O)OCC3C(F)F)nc1-2)C(N)=O
Ans. 85.2

Qu. And then Cn1ncnc1[C@H]1c2n[nH]c(=O)c3cc(F)cc(c23)N[C@@H]1c1ccc(F)cc1 + CC(Nc1ncnc2nc[nH]c12)c1cc2cccc(Cl)c2c(=O)n1-c1ccccc1 , what is it?
Ans. 87.8

Qu. And what about the molecule CC(C)n1nc(-c2ccc3oc(N)nc3c2)c2c(N)ncnc21 + CC(Nc1ccc2c(c1)OCCn1cc(N3C(=O)OCC3C(F)F)nc1-2)C(N)=O ?
Ans. 70.3

Qu. And for Cn1ncnc1[C@H]1c2n[nH]c(=O)c3cc(F)cc(c23)N[C@@H]1c1ccc(F)cc1 + Cc1nc(NC(=O)N2CCCC2C(N)=O)sc1-c1ccnc(C(C)(C)C(F)(F)F)c1 ?
Ans. 109

Qu. Field entry: CCN1CCN(Cc2ccc(Nc3ncc(F)c(-c4cc(F)c5nc(C)n(C(C)C)c5c4)n3)nc2)CC1 + Cc1nc(NC(=O)N2CCCC2C(N)=O)sc1-c1ccnc(C(C)(C)C(F)(F)F)c1
Ans. 90.7
